- Test system: OVCAR-4 ovarian
- test_protocol: NCI-60 one-dose screen, 48 h
- particulars: 10 µM unless noted
About 83,000 compounds went through this panel and 20% of them were active in at least one assay; those are over-represented in the sample as a whole. The source made the active and inactive calls. The calls were made as follows: active = growth percent below 10; inactive = the rest.
Bench note: report the call from T (active), F (inactive)

Example cases with answers are listed next.
- entry_smiles: "Nc1ncc(-c2ccc3ncnc(N4CCc5cc(F)c(Cl)cc54)c3c2)cn1"
  discrete_label: "F"
- entry_smiles: "C=C(C)[C@@H]1CC[C@]2(COC)CC[C@]3(C)[C@H](CC[C@@H]4[C@@]5(C)CCCNC(C)(C)[C@@H]5CC[C@]43C)[C@@H]12"
  discrete_label: "F"
- entry_smiles: "COc1ccc(NC(=O)CSc2nnc(-c3ccc4nc(-c5ccccc5)[nH]c4c3)o2)cc1"
  discrete_label: "F"
- entry_smiles: "Cc1ccc(-c2cc3nc(C(Cl)Cl)nc(-c4ccco4)n3n2)cc1"
  discrete_label: "F"

# next molecule below
Task item: Name the outcome recorded for COc1ccc(-c2nc(C(Cl)Cl)nc3cc(-c4ccccc4)nn23)cc1 in the assay.
Reply: T

###

- Test system: COLO 205 colon
- test_protocol: NCI-60 one-dose screen, 48 h
- particulars: 10 µM unless noted
About 83,000 compounds went through this panel and 20% of them were active in at least one assay; those are over-represented in the sample as a whole. The source made the active and inactive calls. How the source made its calls: active means growth percent below 10; inactive means the rest.
Bench note: report the call from active, inactive

- compound: "CNc1ncc2cc(-c3ccc(-c4ncccc4F)cc3Cl)c(=O)n(CC3OCC(N)CO3)c2n1 (stereo not given)"
  discrete_label: "inactive"

# next compound below
Task item: Name the outcome recorded for CCc1cccc(NC(=O)CNc2cc(S(=O)(=O)N(C)C)cc(C)c2C)c1 in the assay.
Reply: inactive

###

- System: MOLT-4 leukemia
- test_protocol: NCI-60 one-dose screen, 48 h
- particulars: 10 µM unless noted
This is part of a sample that, as a whole, favours compounds with a hit. Of some 83,000 tested, about 20% had one in any assay. Active and inactive are the calls of the source. Rule for the calls: active = growth percent below 10; inactive = the rest.
Bench note: report the call from True (active), False (inactive)

- molecule: "COc1cc(Nc2c(C#N)cnn3cc(-c4cnn(CC(C)(C)O)c4)cc23)ccc1Cl"
  target_under_test: "MOLT-4 leukemia"
  discrete_label: "False"
- molecule: "CCCCCc1ccc(S(=O)(=O)Nc2cc(-c3csc(NC(=O)CN4CCN(CCO)CC4)n3)ccc2OC)cc1"
  target_under_test: "MOLT-4 leukemia"
  discrete_label: "True"
- molecule: "Cc1[nH]c(C(=O)Nc2ccccc2OCc2cccc(C(=O)N3CCC[C@@H](N)C3)c2)c(Cl)c1Cl"
  target_under_test: "MOLT-4 leukemia"
  discrete_label: "True"
- molecule: "Cc1ccc(-n2cc(/C=N/NC(=O)c3nc(N)n[nH]3)c(-c3ccc(S(C)(=O)=O)cc3)n2)cc1"
  target_under_test: "MOLT-4 leukemia"
  discrete_label: "False"
- molecule: "NC(N)=Nc1ccc(Oc2cccc(NC(N)=Nc3ccc(Br)c(C(F)(F)F)c3)c2)cc1"
  target_under_test: "MOLT-4 leukemia"
  discrete_label: "False"
- molecule: "CCO/C=N/C1=C(C#N)C(c2ccc(F)cc2)c2sc3c(CC)cccc3c2O1 (configuration not stated)"
  target_under_test: "MOLT-4 leukemia"
  discrete_label: "False"

Task item: Name the outcome recorded for CC(=O)N(C)C1CCc2c(sc(NC(=O)c3ccc(C(C)(C)C)cc3)c2C(N)=O)C1 (configuration not stated) in the assay.
Reply: False
